# study.system: T1, human MSLN (mesothelin) (human, UniProt Q13421 296-598)
# T1 construct: The construct coated on the plates is not described; also called human mesothelin
# T1 sequence (Q13421 other isoform, or with tags, fused parts or gaps limits assumed, form in doubt): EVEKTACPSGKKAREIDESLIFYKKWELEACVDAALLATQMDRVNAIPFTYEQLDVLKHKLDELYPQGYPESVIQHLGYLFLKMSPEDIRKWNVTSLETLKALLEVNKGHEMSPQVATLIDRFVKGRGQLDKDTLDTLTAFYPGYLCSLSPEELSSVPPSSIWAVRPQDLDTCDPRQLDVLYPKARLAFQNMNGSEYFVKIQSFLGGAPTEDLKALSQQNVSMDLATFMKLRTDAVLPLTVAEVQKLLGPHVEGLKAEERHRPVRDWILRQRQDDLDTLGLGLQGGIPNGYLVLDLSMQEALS
# protocol.summary: ELISA on human MSLN, B cell culture supernatant, 2nd screening
// values below are reported Optical Density (Anti-MSLN reactivity, 2nd screening)
property.name: Optical Density (Anti-MSLN reactivity, 2nd screening) (OD)

# binder, readout.number
data = [
    ("324O5 (rabbit anti-MSLN mAb) (antibody, V domains shown) VH: QSLEESGGRLVTPGTPLTLTCTASGFSLSNYAMTWVRQAPGKGLEYIGIISTGGITYYMDSAKGRFTISRTSTTVDLKMTSLTTEDTATYFCGRNAGGSYIFYYFDLWGQGTLVTVSS VL: AFELTQTPSSVEAAVGGTVTIKCQASQSIYSYLAWYQQKPGQPPKLLIYSASTLASGVSSRFRGSGSGTEYTLTISDLECADAATYYCQTYYDIVTSTFGGGTEVVVK", 2.22),
    ("383I18 (rabbit anti-MSLN mAb) (antibody, V domains shown) VH: QSVEESGGRLVTPGTPLTLTCTVSGFSLSSYAMGWVRQAPGEGLEWIGTISTGGITYYASWAKGRFTISKTSTTVDLKITSPTTEDTATYFCARVGSSGYLFYFFNLWGQGTLVTVSS VL: VFELTQTPSPVSAAVGGTVTIRCQASQNIKSYLAWYQQKPGQPPKLLIYEASILASGVSSRFKGSGSGTEFTLTISDLECADAATYYCQSYYAASSNAFGGGTEVVVK", 0.296),
    ("33O11 (rabbit anti-MSLN mAb) (antibody, V domains shown) VH: QSVEESGGRLVTPGTPLTLTCTVSGISLSSDAISWVRQAPGKGLEYIGIINGGGNTYYASWAKGRFTISKTSTTVDLKITSPTTEDTATYFCARGIQHGGGNSDYYYYGMDLWGPGTLVTVSS VL: EVLMTQTPSSVSAAVGDTVTIKCQASQSISSVLSWYQQKPGQPPKLLIYLASTLASGVPSRFSGSRSGTEFTLTISDLECDDAATYYCQTNYGTSSSNYGFAFGGGTEVVVK", 0.504),
    ("237N18 (rabbit anti-MSLN mAb) (antibody, V domains shown) VH: QSLEESGGRLVAPGTPLTLTCTVSGFSLSSYHMSWVRQAPGEGLEWIGGITAMSRTYYASWAKGRFTISKTSTTVHLKITSPTTEDTATYFCAREPGFVSNIWGPGTLVTVSL VL: AVVLTQTASPVSGVVGGTVTIKCQASQNIYSNLAWYQQKPGQRPKLLMYDASTLASGVPSRFKGSGSGTQFTLTISDLECADAATYYCQSISSVDNNVFGGGTEVVVK", 0.668),
]

All figures here come from patent US20160369011A1.
